- EXPERIMENTAL SYSTEM: Gonadotropin-releasing hormone receptor (Homo sapiens, UniProt P30968)
- Sequence (P30968 whole entry): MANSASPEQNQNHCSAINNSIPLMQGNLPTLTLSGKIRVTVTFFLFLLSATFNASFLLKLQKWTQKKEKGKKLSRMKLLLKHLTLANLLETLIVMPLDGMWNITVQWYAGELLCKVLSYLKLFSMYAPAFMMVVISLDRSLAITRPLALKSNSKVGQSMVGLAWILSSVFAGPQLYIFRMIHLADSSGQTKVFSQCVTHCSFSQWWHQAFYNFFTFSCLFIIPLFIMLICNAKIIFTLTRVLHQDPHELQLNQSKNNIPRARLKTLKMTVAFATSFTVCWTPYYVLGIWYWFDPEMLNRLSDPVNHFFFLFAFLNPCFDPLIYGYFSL
- METHOD DESCRIPTION: Inhibition of human GnRHR expressed in RBL cells assessed as inhibition of GnRH-stimulated [3H]inositol phosphate hydrolysis
VALUE KIND: IC50

Solved entries (count: 3):
>  <CHEM SMILES>
Cc1cc(C)cc(-c2[nH]c3c(c2[C@H](C)CNCCc2ccc4nc(C)[nH]c4c2)CN(C(=O)Cc2c(F)cccc2C(F)(F)F)CC3)c1

>  <RESULT>
0.087 µM

$$$$
>  <CHEM SMILES>
Cc1cc(C)cc(-c2[nH]c3c(c2[C@H](C)CNCCc2ccncc2)CN(C(=O)Cc2c(F)cccc2C(F)(F)F)CC3)c1

>  <RESULT>
0.062 µM

$$$$
>  <CHEM SMILES>
Cc1cc(C)cc(-c2[nH]c3c(c2[C@H](C)CNCCOc2ccc(-c4nnn[nH]4)cc2)CN(C(=O)Cc2c(F)cccc2C(F)(F)F)CC3)c1

>  <RESULT>
0.063 µM

$$$$

IC50 of CCn1c(=O)[nH]c2cc(CCNC[C@@H](C)c3c(-c4cc(C)cc(C)c4)[nH]c4c3CN(C(=O)Cc3c(F)cccc3C(F)(F)F)CC4)ccc2c1=O , assay on Gonadotropin-releasing hormone receptor (Homo sapiens, UniProt P30968), is 0.091 µM

IC50 of Cc1cc(C)cc(-c2[nH]c3c(c2[C@H](C)CNCCc2ccncc2)CN(C(=O)Cc2ccccc2C(F)(F)F)CC3)c1 , assay on Gonadotropin-releasing hormone receptor (Homo sapiens, UniProt P30968), is 0.086 µM

IC50 of Cc1cc(C)cc(-c2[nH]c3c(c2[C@H](C)CNCCc2ccncc2)CN(C(=O)c2ccccc2)CC3)c1 , assay on Gonadotropin-releasing hormone receptor (Homo sapiens, UniProt P30968), is > 10 µM

IC50 of Cc1cc(C)cc(-c2[nH]c3c(c2[C@H](C)CNCCc2cnc4nn[nH]c4c2)CN(C(=O)Cc2c(F)cccc2C(F)(F)F)CC3)c1 , assay on Gonadotropin-releasing hormone receptor (Homo sapiens, UniProt P30968), is 0.009 µM

IC50 of Cc1cc(C)cc(-c2[nH]c3c(c2[C@H](C)CNCCc2cc4[nH]nnc4cc2F)CN(C(=O)Cc2c(F)cccc2C(F)(F)F)CC3)c1 , assay on Gonadotropin-releasing hormone receptor (Homo sapiens, UniProt P30968), is 0.016 µM
